Hello, the source for this data is patent US10052320B2, in case you need it.

Measured IC50 values are reported for all entries that follow.
Biological target: FGFR3 (h) (Homo sapiens, UniProt P22607)
Sequence (P22607 23-806): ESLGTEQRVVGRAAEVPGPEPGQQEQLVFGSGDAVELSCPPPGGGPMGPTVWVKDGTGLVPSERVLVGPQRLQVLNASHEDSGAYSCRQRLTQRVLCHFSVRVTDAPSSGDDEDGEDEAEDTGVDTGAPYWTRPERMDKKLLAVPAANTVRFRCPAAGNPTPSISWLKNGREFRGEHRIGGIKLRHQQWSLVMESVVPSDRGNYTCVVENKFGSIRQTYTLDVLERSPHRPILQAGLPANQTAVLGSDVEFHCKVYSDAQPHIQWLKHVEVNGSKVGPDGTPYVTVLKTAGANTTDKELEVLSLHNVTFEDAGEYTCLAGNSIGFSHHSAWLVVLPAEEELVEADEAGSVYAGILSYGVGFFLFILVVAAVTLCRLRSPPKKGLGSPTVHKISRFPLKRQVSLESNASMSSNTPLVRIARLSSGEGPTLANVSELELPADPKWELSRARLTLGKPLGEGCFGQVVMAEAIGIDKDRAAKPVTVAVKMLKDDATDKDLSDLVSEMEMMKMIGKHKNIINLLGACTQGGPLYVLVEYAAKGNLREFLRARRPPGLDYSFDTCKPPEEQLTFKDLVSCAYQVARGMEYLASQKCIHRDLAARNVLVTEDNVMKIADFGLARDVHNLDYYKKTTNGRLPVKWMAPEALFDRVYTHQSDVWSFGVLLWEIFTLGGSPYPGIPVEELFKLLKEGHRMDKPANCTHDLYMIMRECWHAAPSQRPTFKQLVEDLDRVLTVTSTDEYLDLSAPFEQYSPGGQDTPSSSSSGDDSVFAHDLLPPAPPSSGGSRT
Test: FGFR3 (enzymatic assay), TR-FRET
Assay type: biochemical
Conditions: read-out: FGFR 3 pIC50 (converted)

Observe how each entry below is paired with its result.
| Compound | IC50 |
| --- | --- |
| COc1cc(OC)cc(N(CC2CC2)c2ccc3ncc(-c4ccnc(N5CCN(C)CC5)c4)nc3c2)c1 | 36.3 nM |
| COc1cc(OC)cc(N(CC2CC2)c2ccc3ncc(-c4ccn[nH]4)nc3c2)c1 | 81.3 nM |
| COc1cc(OC)cc(N(CCO)c2ccc3ncc(C4CCN(C(=O)OC(C)(C)C)CC4)nc3c2)c1 | 110 nM |
| COc1cc(OC)cc(N(CCCO)c2ccc3ncc(-c4ccnc(C(=O)NCCCCN)c4)nc3c2)c1 | 17.8 nM |
| COc1cc(OC)cc(N(CC2CC2)c2ccc3ncc(-c4cnnn4C)nc3c2)c1 | 389 nM |
| CNC(=O)c1cc(-c2cnc3ccc(N(CCN4CCCC4CO)c4cc(OC)cc(OC)c4)cc3n2)ccn1 (stereo not shown) | 11.7 nM |

Note to self: IC50 recorded for COc1cc(OC)cc(N(Cc2cccc(CN)n2)c2ccc3ncc(-c4ccc(N)nc4)nc3c2)c1 was 11 nM

Note to self: IC50 recorded for COc1cc(OC)cc(N(CC2CC2)c2ccc3ncc(-n4nccc4C)nc3c2)c1 was > 1000 nM

Note to self: IC50 recorded for COc1cc(OC)cc(N(CCCNCC(F)(F)F)c2ccc3ncc(-c4ccnc(C(=O)NCCCCCO)c4)nc3c2)c1 was 49 nM

Note to self: IC50 recorded for COc1cc(OC)cc(N(CCO)c2ccc3ncc(-c4ccc(OC)nc4)nc3c2)c1 was 9.77 nM

Note to self: IC50 recorded for COc1cc(OC)cc(N(CCO)c2ccc3ncc(C4=CCN(C(=O)OC(C)(C)C)CC4)nc3c2)c1 was 2.88 nM
